# System: LN-229 (Glioblastoma)
# assay-remarks: Bliss excess, mean over the matrix (fraction); higher = more synergy
Readings of Bliss excess for the listed compounds
// print number alone

// worked examples, Bliss excess included
- compound: "COc1cccc2c1C(=O)c1c(O)c3c(c(O)c1C2=O)C[C@@](O)(C(=O)CO)C[C@@H]3O[C@H]1C[C@H](N)[C@H](O)[C@H](C)O1 [Doxorubicin] + Cc1cc2ncnn2cc1Nc1ncc2c(n1)n(C1CCOCC1)c(=O)n2C [AZD7648] (first compound max 1 µM, 7x7, partner max 10 µM)"
  measured: -0.0159
- compound: "Cc1nc(Nc2ncc(C(=O)Nc3c(C)cccc3Cl)s2)cc(N2CCN(CCO)CC2)n1 [Dasatinib] + CC(=O)Nc1cccc(-n2c(=O)n(C3CC3)c(=O)c3c(Nc4ccc(I)cc4F)n(C)c(=O)c(C)c32)c1 [Trametinib] (first compound max 2 µM, 7x7, partner max 1 µM)"
  measured: -0.0025

Please look up its Bliss excess: CCN(CCO)CCCOc1ccc2c(Nc3cc(CC(=O)Nc4cccc(F)c4)[nH]n3)ncnc2c1 [AZD2811] + O=C(c1cc(Cc2n[nH]c(=O)c3ccccc23)ccc1F)N1CCN(C(=O)C2CC2)CC1 [Olaparib] (first compound max 1 µM, 7x7, partner max 10 µM)
-0.0223

Please look up its Bliss excess: COc1nnc2ccc(N3CCC(c4ccc(OCCN5CCN(C)C(=O)[C@H]5C)cc4)CC3)nn12 [AZD5153] + Cc1c2c(nn1C)CSCc1cc(n(C)n1)CSc1cc(c3ccccc3c1)OCCCc1c(C(=O)O)n(C)c3c-2c(Cl)ccc13 [AZD5991] (first compound max 1 µM, 7x7, partner max 1 µM)
0.0175

Please look up its Bliss excess: Cc1cc2ncnn2cc1Nc1ncc2c(n1)n(C1CCOCC1)c(=O)n2C [AZD7648] + CN(C)CCCOc1ccc(-c2ccc3ncc4c(c3c2)n(C2CCOCC2)c(=O)n4C)cn1 [AZD0156] (first compound max 10 µM, 7x7, partner max 1 µM)
-0.0161

Please look up its Bliss excess: CC1(C)CCC(CN2CCN(c3ccc(C(=O)NS(=O)(=O)c4ccc(NCC5CCOCC5)c([N+](=O)[O-])c4)c(Oc4cnc5[nH]ccc5c4)c3)CC2)=C(c2ccc(Cl)cc2)C1 [Venetoclax] + CN(C)CCCOc1ccc(-c2ccc3ncc4c(c3c2)n(C2CCOCC2)c(=O)n4C)cn1 [AZD0156] (first compound max 1 µM, 7x7, partner max 1 µM)
-0.007

Please look up its Bliss excess: COc1cccc(OCCCN)c1-c1cc(Nc2cnc(C#N)cn2)n[nH]1 [Prexasertib] + C=CCn1c(=O)c2cnc(Nc3ccc(N4CCN(C)CC4)cc3)nc2n1-c1cccc(C(C)(C)O)n1 [AZD1775] (first compound max 1 µM, partner max 1 µM)
-0.0177

---

# Test system: MKN45 (Gastric Carcinoma)
# assay-remarks: combination Emax (second highest fraction inhibited in the dose matrix, 72 h); higher = more inhibition; extreme values may be limits of the assay
Readings of combination Emax for the listed compounds

- compound: "COc1nnc2ccc(N3CCC(c4ccc(OCCN5CCN(C)C(=O)[C@H]5C)cc4)CC3)nn12 [AZD5153] + CC1(C)CCC(CN2CCN(c3ccc(C(=O)NS(=O)(=O)c4ccc(NCC5CCOCC5)c([N+](=O)[O-])c4)c(Oc4cnc5[nH]ccc5c4)c3)CC2)=C(c2ccc(Cl)cc2)C1 [Venetoclax] (first compound max 1 µM, 7x7, partner max 1 µM)"
  experimental-system: "MKN45 (Gastric Carcinoma)"
  measured: 0.566
- compound: "CCN(CCO)CCCOc1ccc2c(Nc3cc(CC(=O)Nc4cccc(F)c4)[nH]n3)ncnc2c1 [AZD2811] + O=C(c1cc(Cc2n[nH]c(=O)c3ccccc23)ccc1F)N1CCN(C(=O)C2CC2)CC1 [Olaparib] (first compound max 1 µM, 7x7, partner max 10 µM)"
  experimental-system: "MKN45 (Gastric Carcinoma)"
  measured: 0.28
- compound: "CS(=O)(=O)CCNCc1ccc(-c2ccc3ncnc(Nc4ccc(OCc5cccc(F)c5)c(Cl)c4)c3c2)o1 [Lapatinib] + NC1(c2ccc(-c3nc4ccn5c(=O)[nH]nc5c4cc3-c3ccccc3)cc2)CCC1 [MK-2206] (first compound max 10 µM, 7x7, partner max 10 µM)"
  experimental-system: "MKN45 (Gastric Carcinoma)"
  measured: 0.617

Please look up its combination Emax: Cc1c2c(nn1C)CSCc1cc(n(C)n1)CSc1cc(c3ccccc3c1)OCCCc1c(C(=O)O)n(C)c3c-2c(Cl)ccc13 [AZD5991] + C=CCn1c(=O)c2cnc(Nc3ccc(N4CCN(C)CC4)cc3)nc2n1-c1cccc(C(C)(C)O)n1 [AZD1775] (first compound max 1 µM, partner max 1 µM)
0.826

---

# Test system: VAL (B-Cell Non-Hodgkin's Lymphoma)
# assay-remarks: Bliss excess, mean over the matrix (fraction); higher = more synergy
Readings of Bliss excess for the listed compounds
// print number alone

- compound: "COc1cc2ncnc(Nc3ccc(F)c(Cl)c3)c2cc1OCCCN1CCOCC1 [Gefitinib] + CC(C)n1c(=O)n(C)c2cnc3cc(F)c(-c4ccc(OCCCN5CCCCC5)nc4)cc3c21 [AZD1390] (first compound max 10 µM, 7x7, partner max 0.3 µM)"
  measured: -0.0608
- compound: "NC1(C(=O)N[C@@H](CCO)c2ccc(Cl)cc2)CCN(c2ncnc3[nH]ccc23)CC1 [Capivasertib] + CC(C)n1c(=O)n(C)c2cnc3cc(F)c(-c4ccc(OCCCN5CCCCC5)nc4)cc3c21 [AZD1390] (first compound max 10 µM, 7x7, partner max 0.3 µM)"
  measured: -0.0887

Please look up its Bliss excess: CCc1c2c(nc3ccc(O)cc13)-c1cc3c(c(=O)n1C2)COC(=O)[C@]3(O)CC [SN-38] + O=C(c1cc(Cc2n[nH]c(=O)c3ccccc23)ccc1F)N1CCN(C(=O)C2CC2)CC1 [Olaparib] (first compound max 0.3 µM, 7x7, partner max 10 µM)
0.036

Please look up its Bliss excess: COc1cccc2c1C(=O)c1c(O)c3c(c(O)c1C2=O)C[C@@](O)(C(=O)CO)C[C@@H]3O[C@H]1C[C@H](N)[C@H](O)[C@H](C)O1 [Doxorubicin] + Cc1cc2ncnn2cc1Nc1ncc2c(n1)n(C1CCOCC1)c(=O)n2C [AZD7648] (first compound max 1 µM, 7x7, partner max 10 µM)
0.0974

---

# Tested on: OVMIU (Ovarian Carcinoma)
# assay-remarks: Bliss excess, mean over the matrix (fraction); higher = more synergy
value-type: Bliss excess

Please look up its Bliss excess: CN(CCO)CC[C@H](CSc1ccccc1)Nc1ccc(S(=O)(=O)NC(=O)c2ccc(N3CCC([C@@H](O)c4ccccc4-c4ccc(Cl)cc4)CC3)cc2)cc1S(=O)(=O)C(F)(F)F [AZD4320] + CC(=O)O[C@H]1C(=O)[C@@]2(C)[C@H]([C@H](OC(=O)c3ccccc3)[C@]3(O)C[C@H](OC(=O)[C@H](O)[C@@H](NC(=O)c4ccccc4)c4ccccc4)C(C)=C1C3(C)C)[C@]1(OC(C)=O)CO[C@@H]1C[C@@H]2O [Paclitaxel] (first compound max 1 µM, 7x7, partner max 3 µM)
0.0232

---

# Test system: IST-MES1 (Mesothelioma)
# assay-remarks: Bliss excess, mean over the matrix (fraction); higher = more synergy
Readings of Bliss excess for the listed molecules
// print number alone

// worked examples, Bliss excess included
- molecule: "Cc1c2c(nn1C)CSCc1cc(n(C)n1)CSc1cc(c3ccccc3c1)OCCCc1c(C(=O)O)n(C)c3c-2c(Cl)ccc13 [AZD5991] + CS(=O)(=O)CCNCc1ccc(-c2ccc3ncnc(Nc4ccc(OCc5cccc(F)c5)c(Cl)c4)c3c2)o1 [Lapatinib] (first compound max 1 µM, 7x7, partner max 10 µM)"
  Bliss excess: 0.0139
- molecule: "Cc1cc2ncnn2cc1Nc1ncc2c(n1)n(C1CCOCC1)c(=O)n2C [AZD7648] + O=C(c1cc(Cc2n[nH]c(=O)c3ccccc23)ccc1F)N1CCN(C(=O)C2CC2)CC1 [Olaparib] (first compound max 10 µM, 7x7, partner max 10 µM)"
  Bliss excess: -0.0592

Please look up its Bliss excess: C=CCn1c(=O)c2cnc(Nc3ccc(N4CCN(C)CC4)cc3)nc2n1-c1cccc(C(C)(C)O)n1 [AZD1775] + CCc1c2c(nc3ccc(O)cc13)-c1cc3c(c(=O)n1C2)COC(=O)[C@]3(O)CC [SN-38] (first compound max 1 µM, partner max 0.3 µM)
0.0008

Please look up its Bliss excess: CC1(C)CCC(CN2CCN(c3ccc(C(=O)NS(=O)(=O)c4ccc(NCC5CCOCC5)c([N+](=O)[O-])c4)c(Oc4cnc5[nH]ccc5c4)c3)CC2)=C(c2ccc(Cl)cc2)C1 [Venetoclax] + C[C@@H](Nc1cc(F)cc(F)c1)c1cc(C(=O)N(C)C)cc2c(=O)cc(N3CCOCC3)oc12 [AZD8186] (first compound max 1 µM, 7x7, partner max 3 µM)
-0.0423
